assayProtocol: Octanol-buffer partition coefficient determined by dividing its equilibrium organic concentration by its aqueous concentration
Format: physicochemical
studyConditions: octanol/water
testReadout: PCoct
# print the numeric value only

*Q* # get_value(readout='PCoct', item= O=C(O)CCN1CCC(=C2c3ccccc3COc3ccccc32)CC1 )
*A* 9.66

*Q* Okay, and CN1CCC(=C2c3ccccc3OCc3ncccc32)CC1 ?
*A* 54.3

*Q* Follow-up item: O=C(O)CCN1CCC(=C2c3ccccc3OCc3ncccc32)CC1
*A* 0.56

*Q* Likewise for CN1CCC(=C2c3ccccc3OCc3cccnc32)CC1 ?
*A* 28.4

*Q* Next record, please: O=C(O)CCN1CCC(=C2c3ccccc3OCc3cccnc32)CC1
*A* 0.52

###

Could you please report measured ID50 for the items listed next?
measurementTarget: Histamine H1 receptor (Mus musculus)
assayProtocol: Ex vivo inhibition of [3H]mepyramine binding to mouse brain membrane H1 receptor after oral administration
Format: functional, organism-based
# output: bare number, implied unit mg/kg

*Q* Given the entry CN1CCC(=C2c3ccccc3OCc3ncccc32)CC1 , report its measured ID50.
*A* 0.49

*Q* Field entry: CC(CN1CCC(=C2c3ccc(F)cc3OCc3cccnc32)CC1)C(=O)O (stereo not given)
*A* 2.3

*Q* Please answer likewise for O=C(O)CCN1CCC(=C2c3ccc(F)cc3OCc3cccnc32)CC1
*A* 14

*Q* How about this compound: O=C(O)CCN1CCC(=C2c3ccccc3COc3ccccc32)CC1
*A* 0.062

*Q* Try O=C(O)CCN1CCC(=C2c3ccccc3OCc3cccnc32)CC1 next.
*A* 19

###

measurementTarget: Histamine H1 receptor (Mus musculus) (UniProt P70174)
Sequence (P70174 whole entry): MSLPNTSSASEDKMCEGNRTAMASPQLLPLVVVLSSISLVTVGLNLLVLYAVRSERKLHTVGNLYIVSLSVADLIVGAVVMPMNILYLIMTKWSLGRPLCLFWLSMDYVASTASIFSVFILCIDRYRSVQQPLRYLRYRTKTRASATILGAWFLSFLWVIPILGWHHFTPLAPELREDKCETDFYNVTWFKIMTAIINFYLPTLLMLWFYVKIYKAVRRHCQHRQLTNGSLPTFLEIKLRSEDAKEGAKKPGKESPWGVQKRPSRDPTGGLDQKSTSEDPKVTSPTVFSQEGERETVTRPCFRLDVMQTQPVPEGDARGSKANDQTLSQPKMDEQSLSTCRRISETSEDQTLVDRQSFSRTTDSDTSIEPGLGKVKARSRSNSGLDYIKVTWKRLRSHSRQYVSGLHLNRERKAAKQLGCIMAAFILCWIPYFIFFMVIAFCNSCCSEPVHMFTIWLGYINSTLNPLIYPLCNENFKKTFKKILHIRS
assayProtocol: Ex vivo inhibition of [3H]mepyramine binding to mouse brain membrane H1 receptor after oral administration
Format: functional, organism-based
testReadout: log10 of ID50 (log10 of the value in mg/kg)
Note the log scale: values are log10 of ID50 expressed in mg/kg.

*Q* Which log10 of ID50 is reported for this compound? CN1CCC(=C2c3ccccc3COc3ccccc32)CC1
*A* -0.11

*Q* Repeat for the following compound: CN1CCC(=C2c3ccccc3OCc3cccnc32)CC1
*A* -0.70

*Q* Proceed to O=C(O)CCN1CCC(=C2c3ccccc3OCc3ncccc32)CC1
*A* 0.53

*Q* What do you have for O=C(O)CCN1CCC(=C2c3ccc(F)cc3OCc3ncccc32)CC1 ?
*A* 0.40

*Q* Next entry: CN1CCC(=C2c3ccccc3CC(=O)c3sccc32)CC1
*A* -0.19

###

Test system: Mus musculus
assayProtocol: Tested for Hexobarbital-induced anesthesia in mice by measuring dose which produced 50% increase of the sleeping time upon oral administration
Type: functional
studyConditions: read-out: ID50 (the source's name)
I'd be grateful if you could share measured ED50 for these entries.
Quick reminder: number only, in mg/kg, skip the unit.

*Q* Value wanted: ED50 (Mus musculus) of entry CN1CCC(=C2c3ccccc3OCc3ncccc32)CC1
*A* 9.9

*Q* Next entry: CN1CCC(=C2c3ccccc3COc3ccccc32)CC1
*A* 0.73

*Q* Please do the same for O=C(O)CCN1CCC(=C2c3ccccc3COc3ccccc32)CC1 as well.
*A* 16

###

System: Mus musculus
assayProtocol: Tested for Hexobarbital-induced anesthesia in mice by measuring dose which produced 50% increase of the sleeping time upon oral administration
Assay type: functional
studyConditions: read-out: ID50 (the source's name)
testReadout: ED50

*Q* Item under review: O=C(O)CCN1CCC(=C2c3ccccc3OCc3ncccc32)CC1 . Reported ED50?
*A* > 100 mg/kg

*Q* Same for CN1CCC(=C2c3ccccc3OCc3cccnc32)CC1
*A* > 100 mg/kg

*Q* Same question for O=C(O)CCN1CCC(=C2c3ccccc3OCc3cccnc32)CC1 please.
*A* > 100 mg/kg

// data source = ChEMBL document CHEMBL1128231
